- tgt: T1, human galectin-10-His (recombinant human galectin-10 with TEV-cleavable N-terminal His-tag) (human)
- T1 construct: SEC-MALLS: dimer in solution; also called Gal10-His; humanGal10-His
- T1 chain: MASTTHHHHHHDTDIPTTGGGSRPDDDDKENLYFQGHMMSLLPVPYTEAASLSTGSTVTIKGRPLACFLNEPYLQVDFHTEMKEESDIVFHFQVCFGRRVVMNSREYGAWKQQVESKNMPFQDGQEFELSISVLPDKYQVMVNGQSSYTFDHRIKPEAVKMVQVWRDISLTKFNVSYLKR
- test-summary: BLI tandem on galectin-10-His; competitor: saturating 6A08 mIgG1 (10 ug/mL)

>  <binder>
6E10 mouse IgG1 (antibody, V domains shown, also called 6E010; 6E10 mIgG1) VH: QLQLVESGGGLVQPGGSLRLSCAASGFTFSSYWMYWVRQAPGKGLEWVSAINTGGGSTYYADSVKGRFTISRDNAKNTLYLQMNSLKPEDTALYYCARAGSGVAGTGYDYWGQGTQVTVSS VL: QPVLNQPSAVSVSLGQTARITCQGGNFGYYYVSWYQQKPGQAPVLVIYRDSGRPSGIPERFSGSSSGDTATLTISGAQAEDEADYYCQSGSSSDNAVFGGGTHLTVL

>  <binding signal (nm)>
0.04

$$$$
>  <binder>
2C07 mouse IgG1 (antibody, V domains shown, VH on mouse IgG1 heavy chain constant domains (CH1-CH2-CH3), VL on mouse lambda light chain constant domain; also called 2C07 mIgG1) VH: ELQLVESGGGLVQPGGSLRLSCAASGFTFSSYAMSWVRQAPGKGLEWVSNINSGGGSTGYADSVKGRFTISRDNAKNTLYLQMNSLKPEDMAVYYCAKYLRTYYPNAAFGMDYWGKGTLVTVSS VL: QAVLTQPSAVSVSLGQTARITCQGGNFGRYYASWYQQKPGQAPVLVIYRDSERPSGIPERFSGSSSGDTATLTISGAQAEDEADYYCQSGRSSDNAVFGGGTHLTGL

>  <binding signal (nm)>
-0.01

$$$$
>  <binder>
6B06 mouse IgG1 (antibody, V domains shown, also called 6B06 mIgG1) VH: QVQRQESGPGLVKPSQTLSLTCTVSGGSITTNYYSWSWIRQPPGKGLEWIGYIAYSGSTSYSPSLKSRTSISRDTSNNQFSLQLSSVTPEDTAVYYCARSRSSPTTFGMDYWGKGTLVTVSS VL: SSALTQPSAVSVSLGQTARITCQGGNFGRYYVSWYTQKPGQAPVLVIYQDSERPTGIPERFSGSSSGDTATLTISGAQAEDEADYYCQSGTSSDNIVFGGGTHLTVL

>  <binding signal (nm)>
0.02

$$$$
>  <binder>
6A05 mouse IgG1 (antibody, V domains shown, also called 6A05 mIgG1) VH: EVQLVESGGGLVQPGGSLRLSCAASGFTFSSYAMSWVRQAPGKGLEWVSAINSGGGWTSYVDSVKGRFTISRDNAKNTLYLQMDSLKPEDTAVYYCTKYSGPELNTQYGMDYWGKGTLVTVSS VL: NFMLTQPSAVSVSLGQTARITCQGGNFGSYYASWYQQKPGQAPVLVIYRDSGRPSGIPERFSGSSSGDTATLTISGAQAEDEADYYCQSGSSSDNTVFGGGTHLTVL

>  <binding signal (nm)>
0

$$$$

Data origin: patent US20190367619A1
